B1: SMARCE1 (parent)
chain: YHNSPAYLAYINAKSRAEAALEEE

# Variants of: B1
# procedureText: protein stability index of a GFP-peptide fusion (GPS, HEK-293T) (PSI 1-6); higher = more stable;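 also: lentivirally expressed fusions sorted by FACS into six bins by GFP to DsRed ratio, PSI derived from sequencing read proportions per bin multiplied by bin number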
# conditionParameters: c terminus: a fixed tail appended
Quick reference for protein stability index among some variants

# sequenceVariant, protein stability index
records = [
    ("I11Q", 2.85),
    ("L8E", 1.8),
    ("P5H", 3.81),
    ("H2R", 4.83),
    ("N3G", 2.28),
    ("Y10T", 3.44),
    ("A6F", 2.06),
    ("E24Q", 3.45),
    ("E22R", 2.25),
    ("S15V", 2.26),
    ("A17R", 1.68),
    ("A17L", 2.04),
    ("A20K", 2.71),
    ("S4Q", 3.3),
    ("N3M", 2.06),
    ("I11W", 2.35),
    ("E24D", 2.3),
    ("A20V", 2.56),
    ("A9P", 3.18),
    ("L21G", 2.15),
    ("E22M", 2.01),
    ("S15Q", 2.17),
    ("A6K", 2.22),
    ("L8V", 2.49),
    ("A6I", 2.61),
    ("N3Q", 1.57),
    ("P5S", 2.67),
    ("S4T", 2.6),
    ("A17H", 2.22),
    ("S4F", 2.04),
    ("R16S", 2.43),
    ("E24Y", 1.71),
    ("E18H", 2.33),
    ("A13F", 2.06),
    ("E23W", 1.81),
    ("E23D", 1.54),
    ("L8F", 2.93),
    ("Y7I", 2.47),
    ("H2G", 2.65),
    ("H2P", 1.84),
    ("N3K", 2.89),
    ("Y10V", 2.41),
    ("K14N", 2.57),
    ("Y10C", 2.25),
    ("R16Q", 2.17),
    ("Y1I", 4.78),
]
